# maps each entry to its TGI
tested on: MCF7 breast; test: NCI tumour cell line growth inhibition, 48 h
The reply should be a number in µM, with the unit left off.

Check out these entries, answers already filled in.
Clc1ccc(C(c2ccccc2Cl)C(Cl)Cl)cc1 (stereo not given) : 37.8
O=C(/C=C/C12c3ccccc3C(c3ccccc31)C1C(=O)NC(=O)C12)c1ccc(Cl)cc1Cl (stereo not given) : 3.79
O=C(O)CCS/C(=C\C(SCCC(=O)O)c1ccc(Cl)cc1)c1ccc(Cl)cc1 (stereo not given) : 60.9

Kindly state the measured TGI obtained for CCCCCCCCCCCCCCCCCC1=NC(C)(C)CN1CC(C)O (stereo not given) with MCF7 breast.
14.1

Kindly state the measured TGI obtained for Cc1c2c3ccccc3nc-2n(C)c2ccccc12 with MCF7 breast.
5.98

Kindly state the measured TGI obtained for O=C1c2ccccc2-[n+]2ccc3c([nH]c4ccccc43)c21 with MCF7 breast.
0.834

====

system: RXF-631 renal; test: NCI tumour cell line growth inhibition, 48 h
# maps each entry to its TGI

Check out these entries, answers already filled in.
CCN(CC)CCCNc1ccc2nc(C)n3c4ccc(O)cc4c(=O)c1c23 : 17.4 µM
Clc1ccc(C(c2ccccc2Cl)C(Cl)Cl)cc1 (stereo not drawn) : 35.8 µM

Look at this compound and give its reported TGI. Cc1ccc(NC(=O)CCc2nc(N)nc(N)c2-c2ccccc2)cc1C
> 100 µM

====

tested on: TK-10 renal; test: NCI tumour cell line growth inhibition, 48 h
Measured Metric: TGI

Look at this compound and give its reported TGI. OC1(c2ccc(-c3ccccc3)cc2)c2ccccc2C2=NCCN21 (stereo unspecified)
> 100 µM

Look at this compound and give its reported TGI. COc1ccccc1C#Cc1ccccc1C#CCCCCO
> 100 µM

Look at this compound and give its reported TGI. CN1C/C(=C\c2cccs2)C(O)/C(=C/c2cccs2)C1 (stereo unspecified)
> 100 µM

====

tested on: HOP-62 NSCLC; test: NCI tumour cell line growth inhibition, 48 h
# maps each entry to its TGI

CS(=O)(=O)c1nc(-c2cc3c(c(S(C)(=O)=O)n2)CCCC3)cc2c1CCCCC2 : > 100 µM
O=C1c2ccccc2C(=O)c2cc(N=Nc3c(O)ccc4ccccc34)ccc21 : > 100 µM

Look at this molecule and give its reported TGI. Cn1c2ccccc2c2c3c(c4c5ccccc5n(C)c4c21)C(=O)NC3=O
> 55.8 µM

Look at this molecule and give its reported TGI. O=C(O)CCS/C(=C\C(SCCC(=O)O)c1ccc(Cl)cc1)c1ccc(Cl)cc1 (configuration not stated)
> 100 µM

Look at this molecule and give its reported TGI. CC1=Nc2c(ccc3c2C(=O)c2ccccc2C3=O)NC(c2cccc3c2CCC3)C1 (configuration not stated)
> 100 µM

Look at this molecule and give its reported TGI. COC(=O)C1C(O)CCC2CN3CCc4c([nH]c5ccccc45)C3CC21 (configuration not stated)
> 100 µM

Look at this molecule and give its reported TGI. CC(=O)Nc1ccc(C(=O)NN2C(=O)C(Cl)/C2=C/c2ccco2)cc1 (configuration not stated)
> 100 µM

Look at this molecule and give its reported TGI. [N-]=[N+]=NC(c1cn(C2CC(O)C(CO)O2)c(=O)[nH]c1=O)C(Br)Br (configuration not stated)
> 100 µM

Look at this molecule and give its reported TGI. COc1ccc2c(=O)cc(-c3ccccc3)[nH]c2c1
> 100 µM

Look at this molecule and give its reported TGI. O=C(O)c1ccc(NCn2nc(-c3ccccc3O)oc2=S)cc1
> 100 µM

Look at this molecule and give its reported TGI. O=c1/c(=C/c2ccccc2[N+](=O)[O-])sc2nc3ccccc3n12
> 46.4 µM

Look at this molecule and give its reported TGI. O=C1CC2CC3OC3[C@H]3c4cc5c(cc4C(=O)N1C23)OCO5 (some centres not stated)
> 100 µM

====

test system: SNB-75 CNS; assay: NCI tumour cell line growth inhibition, 48 h
# maps each entry to its TGI

Check out these entries, answers already filled in.
[N-]=[N+]=NC(c1cn(C2CC(O)C(CO)O2)c(=O)[nH]c1=O)C(Br)Br (configuration not stated) : > 100 µM
COc1ccc(-n2c(N)c(C#N)[nH]c2=O)cc1 : > 10 µM
CC(=O)OCC1OC(n2cc(F)c(=O)[nH]c2=O)C(NC(=O)OCc2ccccc2)C(OC(C)=O)C1OC(C)=O (configuration not stated) : > 100 µM
C=C(CC(NC(=O)c1ccc(C(CC)Cc2cnc3nc(N)nc(N)c3n2)cc1)C(=O)O)C(=O)O (configuration not stated) : > 100 µM
CC1/C=C/[C@@]2(C)CCC(C(C)(C)O)C2C(O)C[C@](C)(O)/C=C/C1 (some centres not stated) : > 100 µM
c1cc2c(cc1NC1=NCCO1)OCO2 : > 100 µM

Look at this compound and give its reported TGI. CCCCCCCCCCCCCCCCNC(=O)C(=O)/C=C(\O)c1ccc(C)cc1
> 10 µM

====

system: K-562 leukemia; assay: NCI tumour cell line growth inhibition, 48 h
# maps each entry to its TGI
The reply should be a number in µM, with the unit left off.

CCCCCCCCCCCCCCCCCC1=NC(C)(C)CN1CC(C)O (centres undefined) : 5.44

# ---- query compound ----
Look at this compound and give its reported TGI. O=C(OC1C2OC(=O)c3cc(O)c(O)c(O)c3Oc3cc4c(c(O)c3O)-c3c(cc(O)c(O)c3O)C(=O)OCC3OC(O)C(OC(=O)c5cc(O)c(O)c(O)c5Oc5cc6c(c(O)c5O)-c5c(cc(O)c(O)c5O)C(=O)OC1C(COC6=O)OC2O)C(OC(=O)c1cc(O)c(O)c(O)c1)C3OC4=O)c1cc(O)c(O)c(O)c1 (centres undefined)
42.8

====

# maps each entry to its TGI
tested on: MDA-N; assay: NCI tumour cell line growth inhibition, 48 h

Cc1nc(CC#N)n[nH]1 : > 100 µM
COc1ccc(C2OC(=O)c3ccc4ccccc4c32)c(C)c1 (stereo unspecified) : 4.28 µM
C=CCC1CC(n2cc(C)c(=O)[nH]c2=O)OC1CO[Si](C)(C)C(C)(C)C (stereo unspecified) : 27.4 µM
O=[N+]([O-])c1ccc2c(c1)N([O-])C1(CCCCC1)[N+]2=O : 31.8 µM
CCOC(=O)c1cc2cc3c4c(c2oc1=O)CCCN4CCC3 : > 100 µM

Look at this compound and give its reported TGI. CC(C)(C)OC(=O)NC1CC2(C=C(Br)C(=O)C(Br)=C2)OC1=O (stereo unspecified)
15.3 µM

Look at this compound and give its reported TGI. COc1ccc2nc(-c3ccccc3)cc(OCC(=O)O)c2c1
> 100 µM

Look at this compound and give its reported TGI. Cc1ccc(/C=N/n2c(-c3ccc(C)cc3)n[nH]c2=O)cc1
> 100 µM

Look at this compound and give its reported TGI. O=C(O)c1ccc(CI)cc1
34.4 µM

====

tested on: SK-MEL-5 melanoma; test: NCI tumour cell line growth inhibition, 48 h
Measured Metric: GI50

Check out these entries, answers already filled in.
CS(=O)(=O)CCNCc1cc(-c2cc3c(Nc4ccc(OCc5cccc(F)c5)c(Cl)c4)ncnc3s2)cs1 : 7.09 µM
Cn1c(C(=O)c2ccncc2)cc2ccccc21 : 37.5 µM

Look at this compound and give its reported GI50. COc1cc(OC)c(C(=O)/C=C/c2cc3c(cc2OCc2ccccc2)OC(C)(C)CC3)cc1CC=C(C)C
3.33 µM

Look at this compound and give its reported GI50. COc1ccc2cc(/C=C/C(=O)c3ccc(Cl)cc3Cl)ccc2c1
20.9 µM

====

# maps each entry to its TGI
test system: SF-539 CNS; assay: NCI tumour cell line growth inhibition, 48 h

Check out these entries, answers already filled in.
CC1=NC2=Nc3nc(C)cc[n+]3CN2C=C1 : > 100 µM
c1cc2c(cc1NC1=NCCO1)OCO2 : > 100 µM
O=[N+]([O-])c1cc(Cl)c2[nH]c3c(Cl)cc([N+](=O)[O-])cc3c2c1 : > 92.2 µM

# ---- query compound ----
Look at this compound and give its reported TGI. C#Cc1cccc(N2C(=O)c3c(c(-c4ccccc4)c(-c4ccc(Cc5ccc(-c6c(-c7ccccc7)c7c(c(-c8ccccc8)c6-c6ccccc6)C(=O)N(c6cccc(C#C)c6)C7=O)cc5)cc4)c(-c4ccccc4)c3-c3ccccc3)C2=O)c1
> 100 µM

====

tested on: A549 NSCLC; assay: NCI tumour cell line growth inhibition, 48 h
# maps each entry to its TGI

Check out these entries, answers already filled in.
CN(C)c1ccc(/C=C2\N=C(NNc3ccccc3)NC2=O)cc1 : > 100 µM
CN(C(=O)Cc1ccccc1)n1cnn(CC(=O)OC(C)(C)C)c1=S : > 10 µM
Nc1nonc1-c1nc2cnccc2n1C1CC1 : > 25 µM
O=S(=O)(Nc1nc2ccccc2nc1Nc1ccc2ccccc2c1)c1ccccc1 : > 100 µM
COc1cc(OC)c(C(=O)/C=C/c2cc3c(cc2OCc2ccccc2)OC(C)(C)CC3)cc1CC=C(C)C : > 25 µM
COC(CN(C(C)=O)C1CCC2(SCCS2)c2[nH]c3ccccc3c21)OC (stereo not drawn) : > 100 µM
C/C=C(/I)CBr : 66.7 µM

Look at this molecule and give its reported TGI. CCP(=O)(CC)C(Cl)Cl
> 100 µM

Every entry's value here was drawn from PubChem BioAssay (NCI).
